I'd be grateful if you could share measured TGI for these entries.
Test system: NCI-H460 lung
Assay: NCI tumour cell line growth inhibition, 48 h
Where a SMILES comes first, the peptide text is derived from it. [ ]: non-standard residue; d: D form. The star is where a group is joined. ξ: configuration not given here. NMeF = CN[C@@H](Cc1ccccc1)C(=O)O; NMeV = CN[C@H](C(=O)O)C(C)C; ξNMeN = CNC(CC(N)=O)C(=O)O; NMeA = CN[C@@H](C)C(=O)O; ξNMeV = CNC(C(=O)O)C(C)C; Boc = CC(C)(C)OC(=O)*

Give recorded TGI with NCI-H460 lung for the following compound: CN1CCCC2[C@@H]3CCC4=C(O)C(=O)CC[C@]4(C)C3CC[C@@]21C (stereo partly drawn)
> 100 µM

Give recorded TGI with NCI-H460 lung for the following compound: COc1ccc(C2SC(N)=Nc3c2c(C)nn3C(=O)Cc2ccccc2)cc1 (stereo not drawn)
> 100 µM

Give recorded TGI with NCI-H460 lung for the following compound: O=C(c1ccccc1)c1ccc2cccc(OC3OC(CO)C(O)C(O)C3O)c2n1 (stereo not drawn)
> 100 µM

Give recorded TGI with NCI-H460 lung for the following compound: COC(=O)c1cnc(Cl)c([N+](=O)[O-])c1
31.5 µM

Give recorded TGI with NCI-H460 lung for the following compound: CCCCOC(=O)CC(CC(=O)OCCCC)(OC(C)=O)C(=O)OCCCC
> 200 µM

Give recorded TGI with NCI-H460 lung for the following compound: CC1CC2(OC2C)C(=O)OC2CCN(C)C/C=C(/COC(=O)C1(C)O)C2=O (stereo not drawn)
> 100 µM

Give recorded TGI with NCI-H460 lung for the following compound: O=C1C2c3[nH]c4ccccc4c3C3CCCCC3C2C(=O)N1c1ccccc1 (stereo not drawn)
> 100 µM

Give recorded TGI with NCI-H460 lung for the following compound: COc1ccc(/C=C/C2C(C#N)=C(N)OC3=C2C(=O)CCC3)cc1 (stereo not drawn)
35 µM

Give recorded TGI with NCI-H460 lung for the following compound: N#CNC(=NCCO)NCCO
> 100 µM

Give recorded TGI with NCI-H460 lung for the following compound: CCOC(=O)N1CCN(P(=O)(Nc2ccc3nc(NC(=O)OC)[nH]c3c2)Oc2ccccc2)CC1 (stereo not drawn)
> 100 µM

Give recorded TGI with NCI-H460 lung for the following compound: COC(=O)/C=C\[C@H]1[C@H](C)N1S(=O)(=O)c1ccc(C)cc1 (stereo partly drawn)
> 100 µM

Give recorded TGI with NCI-H460 lung for the following compound: Nc1nc2cc(O)ccc2n2cc3c(F)cccc3c12
> 100 µM

Give recorded TGI with NCI-H460 lung for the following compound: CC(C)N(C(C)C)[PH+]1O[PH+](N(C(C)C)C(C)C)O[PH+](N(C(C)C)C(C)C)O[PH+](N(C(C)C)C(C)C)O1.[C-]#[O+].[C-]#[O+].[C-]#[O+].[C-]#[O+].[C-]#[O+].[C-]#[O+].[C-]#[O+].[C-]#[O+].[Mo].[Mo] (stereo not drawn)
> 100 µM

Give recorded TGI with NCI-H460 lung for the following compound: O=C1C=C(Nc2ccc(Br)cc2)c2ccccc2C1=O
23.8 µM

Give recorded TGI with NCI-H460 lung for the following compound: COc1cc(/C=C/C(=O)c2ccccc2)cc(OC)c1OC
5.91 µM

Give recorded TGI with NCI-H460 lung for the following compound: Cn1cc(-c2csc(-c3c[nH]c4ccccc34)n2)c2cnccc21
3.61 µM

Give recorded TGI with NCI-H460 lung for the following compound: OC(CC(CC(O)(C(F)(F)F)C(F)(F)F)=NN=C(CC(O)(C(F)(F)F)C(F)(F)F)CC(O)(C(F)(F)F)C(F)(F)F)(C(F)(F)F)C(F)(F)F
> 10 µM

Give recorded TGI with NCI-H460 lung for the following compound: COC(=O)[C@H](C)N(C)C(=O)C(CC(N)=O)N(C)C(=O)[C@H](Cc1ccccc1)N(C)C(=O)[C@@H]1CCCN1C(=O)[C@H](C(C)C)N(C)C(=O)C(C(C)C)N(C)C(=O)[C@@H](NC(=O)OC(C)(C)C)C(C)C (stereo partly drawn) (Boc-V[ξNMeV][NMeV]P[NMeF][ξNMeN][NMeA]-OMe)
> 75 µM

Origin of measurements: PubChem BioAssay (NCI)
